We begin with a simple list: items and their reported IC50.
EXPERIMENTAL TARGET: Intermediate conductance calcium-activated potassium channel protein 4 (Homo sapiens)
Sequence (O15554 whole entry): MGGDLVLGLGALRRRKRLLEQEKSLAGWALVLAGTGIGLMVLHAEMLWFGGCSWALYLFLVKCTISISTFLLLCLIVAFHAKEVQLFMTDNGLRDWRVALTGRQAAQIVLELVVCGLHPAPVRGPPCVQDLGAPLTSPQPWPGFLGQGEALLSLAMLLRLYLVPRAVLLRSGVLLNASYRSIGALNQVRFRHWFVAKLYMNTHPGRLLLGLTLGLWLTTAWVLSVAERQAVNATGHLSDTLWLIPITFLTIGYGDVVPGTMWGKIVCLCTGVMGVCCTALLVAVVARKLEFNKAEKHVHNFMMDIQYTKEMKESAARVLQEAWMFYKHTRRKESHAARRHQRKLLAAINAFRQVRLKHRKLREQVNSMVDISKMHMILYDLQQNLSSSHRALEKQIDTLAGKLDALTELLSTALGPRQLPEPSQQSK
ASSAY OVERVIEW: Inhibition of Kca3.1 in human erythrocytes
The reply should be a number in nM, with the unit left off.

[[record]]
compound_string = "COC(=O)N(C[C@@H]1CCCN1)C1(c2ccc(F)c(OC(F)(F)F)c2)CC1"
experimental_target = "Intermediate conductance calcium-activated potassium channel protein 4 (Homo sapiens)"
unit_tag = "nM"
observed_measurement = 8.7

[[record]]
compound_string = "COC(=O)N(C[C@H]1CCCN1C)C1(c2ccc(F)c(C(F)(F)F)c2)CC1"
experimental_target = "Intermediate conductance calcium-activated potassium channel protein 4 (Homo sapiens)"
unit_tag = "nM"
observed_measurement = 8.1


Return reported IC50; argument: COC(=O)N(CC(C)(C)N)C1(c2ccc(F)c(C(F)(F)F)c2)CC1
8.6
